systemUnderTest: Integrin alpha-IIb/beta-3 (Homo sapiens, UniProt P05106+P08514)
Sequence (P05106 27-788 limits assumed): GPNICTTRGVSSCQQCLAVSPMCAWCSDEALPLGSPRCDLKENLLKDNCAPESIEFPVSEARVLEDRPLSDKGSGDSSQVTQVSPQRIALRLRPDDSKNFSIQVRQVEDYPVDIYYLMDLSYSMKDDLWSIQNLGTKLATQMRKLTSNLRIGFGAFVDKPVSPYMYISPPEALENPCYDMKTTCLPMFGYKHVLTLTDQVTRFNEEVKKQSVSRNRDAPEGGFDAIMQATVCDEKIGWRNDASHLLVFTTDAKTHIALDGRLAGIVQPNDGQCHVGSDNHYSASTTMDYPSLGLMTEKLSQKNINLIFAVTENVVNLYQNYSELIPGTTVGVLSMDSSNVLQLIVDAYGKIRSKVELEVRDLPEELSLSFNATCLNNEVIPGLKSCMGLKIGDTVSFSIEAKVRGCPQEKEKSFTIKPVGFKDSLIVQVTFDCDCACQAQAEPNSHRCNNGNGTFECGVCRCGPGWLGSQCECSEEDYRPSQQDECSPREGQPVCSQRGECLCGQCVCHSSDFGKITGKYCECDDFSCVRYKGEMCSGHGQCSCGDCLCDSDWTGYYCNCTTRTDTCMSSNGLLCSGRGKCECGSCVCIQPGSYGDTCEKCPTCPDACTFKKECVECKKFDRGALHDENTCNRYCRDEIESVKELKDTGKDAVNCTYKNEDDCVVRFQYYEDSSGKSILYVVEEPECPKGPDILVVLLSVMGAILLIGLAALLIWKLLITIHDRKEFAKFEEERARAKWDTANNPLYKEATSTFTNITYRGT
Sequence (P08514 32-887 limits assumed): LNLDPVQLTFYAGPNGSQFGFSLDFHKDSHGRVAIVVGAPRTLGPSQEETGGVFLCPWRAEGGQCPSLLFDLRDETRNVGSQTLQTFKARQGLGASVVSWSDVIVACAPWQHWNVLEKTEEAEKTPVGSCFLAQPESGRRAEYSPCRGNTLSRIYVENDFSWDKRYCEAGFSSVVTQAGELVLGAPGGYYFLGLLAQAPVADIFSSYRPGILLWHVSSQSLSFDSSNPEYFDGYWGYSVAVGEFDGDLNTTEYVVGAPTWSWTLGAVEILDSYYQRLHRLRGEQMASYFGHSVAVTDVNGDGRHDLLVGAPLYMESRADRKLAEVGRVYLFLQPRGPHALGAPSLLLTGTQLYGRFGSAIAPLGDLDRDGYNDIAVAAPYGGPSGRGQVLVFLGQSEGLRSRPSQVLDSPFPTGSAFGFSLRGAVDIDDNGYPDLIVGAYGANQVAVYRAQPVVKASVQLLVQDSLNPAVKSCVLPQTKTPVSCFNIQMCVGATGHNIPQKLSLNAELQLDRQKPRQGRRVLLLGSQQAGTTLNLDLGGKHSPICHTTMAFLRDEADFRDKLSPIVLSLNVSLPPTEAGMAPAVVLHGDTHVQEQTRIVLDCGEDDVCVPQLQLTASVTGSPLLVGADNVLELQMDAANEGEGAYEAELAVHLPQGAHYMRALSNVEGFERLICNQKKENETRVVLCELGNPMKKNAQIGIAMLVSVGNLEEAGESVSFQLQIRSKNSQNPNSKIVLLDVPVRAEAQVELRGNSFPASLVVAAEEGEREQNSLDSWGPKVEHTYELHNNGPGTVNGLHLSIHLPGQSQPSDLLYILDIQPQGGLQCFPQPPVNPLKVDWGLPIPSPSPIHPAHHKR
Sequence (P08514 891-1039 limits assumed): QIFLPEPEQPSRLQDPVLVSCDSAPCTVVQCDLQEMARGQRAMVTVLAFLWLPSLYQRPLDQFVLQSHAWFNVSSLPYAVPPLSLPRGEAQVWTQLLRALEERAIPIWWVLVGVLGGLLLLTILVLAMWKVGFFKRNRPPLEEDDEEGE
measurementProtocol: Inhibition of fibrinogen binding to activated human platelets
pIC50: −log10 of the molar value. Where a SMILES comes first, the peptide text is derived from it.
reportedProperty: pIC50

P: CC(C)[C@H](NC(=O)[C@H](CC(=O)O)NC(=O)[C@@H]1CCN(C(=O)/C=C/c2ccc(NC(=N)N)cc2)C1)C(=O)O
Q: CC(C)[C@H](NC(=O)[C@H](CC(=O)O)NC(=O)CCNC(=O)/C=C/c1ccc(NC(=N)N)cc1)C(=O)O
R: CC(C)[C@H](NC(=O)[C@H](CC(=O)O)NC(=O)CNC(=O)/C=C/c1ccc(NC(=N)N)cc1)C(=O)O
Task for the reader: rank each entry by its pIC50, from the minimum upward. A complete answer lists every label in the requested sequence.
R, Q, P
(R: 5.30, Q: 6.62, P: 8.52)

A: CC(C)[C@H](NC(=O)[C@H](CC(=O)O)NC(=O)CCN(C)C(=O)/C=C/c1ccc(NC(=N)N)cc1)C(=O)O
B: CC(C)[C@H](NC(=O)[C@H](CC(=O)O)NC(=O)CCCNC(=O)/C=C/c1ccc(NC(=N)N)cc1)C(=O)O
I need your help: which of the pair A , B has higher pIC50? I would appreciate it if you answered with the label of your choice.
A

1: CC(C)[C@H](NC(=O)[C@H](CC(=O)O)NC(=O)C[C@@H]1CCCN1C(=O)/C=C/c1ccc(NC(=N)N)cc1)C(=O)O
2: CC(C)[C@H](NC(=O)[C@H](CC(=O)O)NC(=O)CNC(=O)[C@@H](N)CCCN=C(N)N)C(=O)O (H-RGDV-OH)
3: CC(C)[C@H](NC(=O)[C@H](CC(=O)O)NC(=O)C[C@H]1CCN1C(=O)/C=C/c1ccc(NC(=N)N)cc1)C(=O)O
4: CC(C)[C@H](NC(=O)[C@H](CC(=O)O)NC(=O)C[C@@H]1CCCCN1C(=O)/C=C/c1ccc(NC(=N)N)cc1)C(=O)O
List these items ordered by pIC50, big to small. A complete answer lists every label in the requested sequence.
3, 4, 1, 2

P: CC(C)[C@H](NC(=O)[C@H](CC(=O)O)NC(=O)C[C@H]1CCCN1C(=O)/C=C/c1ccc(NC(=N)N)cc1)C(=O)O
Q: CC(C)[C@H](NC(=O)[C@H](CC(=O)O)NC(=O)[C@@H]1CCCN(C(=O)/C=C/c2ccc(NC(=N)N)cc2)C1)C(=O)O
// select label with min value of measured pIC50 from [ P , Q ] I would appreciate it if you answered with the label of your choice.
P

====

systemUnderTest: Integrin alpha-IIb/beta-3 (Homo sapiens, UniProt P05106+P08514)
measurementProtocol: Inhibition of fibrinogen binding to activated human platelets
pIC50: −log10 of the molar value.
reportedProperty: pIC50

* CCN(CCC(=O)N[C@@H](CC(=O)O)C(=O)N[C@H](C(=O)O)C(C)C)C(=O)/C=C/c1ccc(NC(=N)N)cc1 | 6.66

a: CC(C)[C@H](NC(=O)[C@H](CC(=O)O)NC(=O)[C@H]1CCN(C(=O)/C=C/c2ccc(NC(=N)N)cc2)C1)C(=O)O
b: CC(C)[C@H](NC(=O)[C@H](CC(=O)O)NC(=O)[C@H]1CCCN(C(=O)/C=C/c2ccc(NC(=N)N)cc2)C1)C(=O)O
// select label with min value of measured pIC50 from [ a , b ] I would appreciate it if you answered with the label of your choice.
a
(a: 5.52, b: 6.92)
